Catalogue of pIC50 values
# assayed system: PI 3-kinase beta (Homo sapiens)
# Sequence (P42338 whole entry): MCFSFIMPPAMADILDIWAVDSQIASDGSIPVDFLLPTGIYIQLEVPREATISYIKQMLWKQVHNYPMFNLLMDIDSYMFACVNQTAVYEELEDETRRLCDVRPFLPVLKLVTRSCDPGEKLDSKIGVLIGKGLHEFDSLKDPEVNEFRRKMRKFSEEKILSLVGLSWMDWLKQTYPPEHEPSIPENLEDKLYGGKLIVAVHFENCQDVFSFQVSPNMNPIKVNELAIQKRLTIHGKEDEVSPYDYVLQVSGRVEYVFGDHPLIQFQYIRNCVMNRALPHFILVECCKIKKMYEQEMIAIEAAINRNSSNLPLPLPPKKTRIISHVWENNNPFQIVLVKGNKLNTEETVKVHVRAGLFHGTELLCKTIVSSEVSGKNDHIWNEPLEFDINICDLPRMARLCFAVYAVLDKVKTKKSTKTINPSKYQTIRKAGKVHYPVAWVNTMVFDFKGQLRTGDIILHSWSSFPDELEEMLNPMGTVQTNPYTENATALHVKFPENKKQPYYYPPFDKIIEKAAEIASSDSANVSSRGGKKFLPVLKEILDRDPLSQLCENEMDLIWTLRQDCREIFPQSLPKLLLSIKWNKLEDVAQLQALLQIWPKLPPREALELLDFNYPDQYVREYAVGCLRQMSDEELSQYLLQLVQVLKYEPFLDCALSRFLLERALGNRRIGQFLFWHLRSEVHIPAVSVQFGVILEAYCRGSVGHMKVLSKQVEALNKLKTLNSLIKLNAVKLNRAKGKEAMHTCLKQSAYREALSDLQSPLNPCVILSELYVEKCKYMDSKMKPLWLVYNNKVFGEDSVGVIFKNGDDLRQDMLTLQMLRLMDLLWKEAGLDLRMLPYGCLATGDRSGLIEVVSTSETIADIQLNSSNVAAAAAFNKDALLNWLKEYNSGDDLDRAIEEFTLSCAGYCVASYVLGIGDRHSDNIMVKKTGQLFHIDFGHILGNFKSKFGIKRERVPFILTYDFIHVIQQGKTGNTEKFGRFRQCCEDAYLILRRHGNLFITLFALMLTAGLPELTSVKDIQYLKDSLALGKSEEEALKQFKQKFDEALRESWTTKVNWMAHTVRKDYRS
# Sequence (Q63787 whole entry partner): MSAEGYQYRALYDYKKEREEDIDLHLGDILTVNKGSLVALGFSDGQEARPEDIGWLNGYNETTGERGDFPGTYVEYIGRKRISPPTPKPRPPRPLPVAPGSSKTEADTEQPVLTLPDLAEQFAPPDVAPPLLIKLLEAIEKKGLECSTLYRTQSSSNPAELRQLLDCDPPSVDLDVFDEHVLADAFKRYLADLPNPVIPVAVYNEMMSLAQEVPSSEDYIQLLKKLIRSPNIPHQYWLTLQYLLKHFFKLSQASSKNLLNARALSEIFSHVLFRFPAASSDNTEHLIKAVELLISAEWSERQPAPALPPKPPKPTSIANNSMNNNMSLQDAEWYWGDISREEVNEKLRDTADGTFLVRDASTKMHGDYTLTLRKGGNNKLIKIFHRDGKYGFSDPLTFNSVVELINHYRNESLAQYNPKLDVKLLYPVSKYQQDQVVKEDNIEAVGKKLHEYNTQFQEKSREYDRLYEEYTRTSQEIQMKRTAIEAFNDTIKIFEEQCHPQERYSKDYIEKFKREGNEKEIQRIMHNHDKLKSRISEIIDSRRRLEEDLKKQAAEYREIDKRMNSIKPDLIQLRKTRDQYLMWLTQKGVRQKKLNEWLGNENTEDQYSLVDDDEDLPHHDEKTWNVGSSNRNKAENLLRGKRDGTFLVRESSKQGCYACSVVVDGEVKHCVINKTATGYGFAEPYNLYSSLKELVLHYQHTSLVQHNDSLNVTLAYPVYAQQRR
# measurement description: Cellular assay I1, p-Akt (S473) in Rat-1 cells, Surefire format
# Format: cell-based
# run conditions: non-asterisked data: version I1 (Surefire format), Rat-1 cells; read-out: Assay I PI3Kβ IC50
Where a name gives a salt, the structure may show the parent alone.
Please express pIC50 as -log10 of the molar concentration.

# molecule, measured value
data = [
    ("Cc1ccc(S(=O)(=O)NOC(C)(C)C)cc1-c1cnc(N)c(-n2cncn2)n1", 5.83),
]

// below: pIC50 requested for another molecule
[ask] What is its pIC50 for PI 3-kinase beta (Homo sapiens)? Entry: Cc1ccc(S(=O)(=O)NCCC(C)(C)O)cc1-c1cnc(N)c(-c2cnn(Cc3ccccc3)c2)n1 [Example 132, hydrochloride]
[reply] 5.22

###

# assayed system: PI 3-kinase gamma (Homo sapiens, UniProt P48736)
# Sequence (P48736 whole entry): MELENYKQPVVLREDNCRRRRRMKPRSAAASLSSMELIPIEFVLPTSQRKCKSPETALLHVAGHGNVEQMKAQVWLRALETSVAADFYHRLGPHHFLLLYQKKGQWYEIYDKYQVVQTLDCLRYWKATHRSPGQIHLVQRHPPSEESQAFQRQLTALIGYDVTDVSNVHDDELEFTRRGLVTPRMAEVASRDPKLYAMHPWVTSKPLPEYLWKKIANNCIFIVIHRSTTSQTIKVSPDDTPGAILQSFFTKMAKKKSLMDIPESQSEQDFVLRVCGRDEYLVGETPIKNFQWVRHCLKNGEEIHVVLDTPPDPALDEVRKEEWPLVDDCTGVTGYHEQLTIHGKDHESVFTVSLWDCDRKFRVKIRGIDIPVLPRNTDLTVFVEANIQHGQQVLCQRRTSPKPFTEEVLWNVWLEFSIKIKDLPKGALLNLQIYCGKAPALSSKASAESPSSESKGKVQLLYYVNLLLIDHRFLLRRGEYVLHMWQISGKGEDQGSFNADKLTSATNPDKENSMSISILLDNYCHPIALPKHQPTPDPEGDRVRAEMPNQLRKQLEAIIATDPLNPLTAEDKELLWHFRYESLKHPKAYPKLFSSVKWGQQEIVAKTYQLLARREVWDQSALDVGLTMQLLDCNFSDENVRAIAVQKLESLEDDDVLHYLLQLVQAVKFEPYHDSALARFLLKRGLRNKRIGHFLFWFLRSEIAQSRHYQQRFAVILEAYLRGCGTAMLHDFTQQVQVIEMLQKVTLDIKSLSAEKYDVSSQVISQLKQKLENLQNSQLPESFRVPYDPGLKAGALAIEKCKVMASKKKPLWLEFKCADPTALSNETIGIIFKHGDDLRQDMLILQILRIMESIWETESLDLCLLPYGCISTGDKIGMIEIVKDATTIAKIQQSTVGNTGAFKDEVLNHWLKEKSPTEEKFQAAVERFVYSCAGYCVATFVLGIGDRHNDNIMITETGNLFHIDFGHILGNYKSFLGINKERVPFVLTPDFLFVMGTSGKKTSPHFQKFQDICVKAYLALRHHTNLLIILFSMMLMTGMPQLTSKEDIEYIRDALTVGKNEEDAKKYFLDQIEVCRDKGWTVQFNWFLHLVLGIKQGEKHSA
# measurement description: TR-FRET Adapta assay, assay E
# Type: biochemical
# run conditions: read-out: Assay E PI3Kγ IC50
endpoint name: pIC50
Please express pIC50 as -log10 of the molar concentration.

# compound, assayed system, pIC50
data = [
    ("Cc1ccc(S(=O)(=O)NC[C@H]2CCOC2)cc1-c1cnc(N)c(-c2cn(C)nc2C)n1", "PI 3-kinase gamma (Homo sapiens, UniProt P48736)", 8.05),
    ("Cc1ccc(S(=O)(=O)NCCC(C)(C)O)cc1-c1cnc(N)c(-c2cnn(C)c2)n1", "PI 3-kinase gamma (Homo sapiens, UniProt P48736)", 7.66),
    ("Cc1ccc(S(=O)(=O)NC2CC2)cc1-c1cnc(N)c(-n2cncn2)n1", "PI 3-kinase gamma (Homo sapiens, UniProt P48736)", 7.60),
]

[ask] If you can, please state the reported pIC50 value of Cc1cc(-c2nc(-c3cc(S(=O)(=O)NCC4CCCCO4)ccc3C)cnc2N)ccn1 (stereo not shown) .
[reply] 7.18

[ask] If you can, please state the reported pIC50 value of CCc1nnc(-c2nc(-c3cc(S(=O)(=O)N[C@H]4CC[C@H](O)CC4)ccc3C)cnc2N)o1 .
[reply] 8.40

[ask] If you can, please state the reported pIC50 value of Cc1cc(-c2nc(-c3cc(S(=O)(=O)NCCN)ccc3C)cnc2N)ccn1 .
[reply] 6.96

[ask] If you can, please state the reported pIC50 value of Cc1ccc(S(=O)(=O)NC2CCC(CO)CC2)cc1-c1cnc(N)c(-n2cncn2)n1 (stereo not shown) .
[reply] 6.80

[ask] If you can, please state the reported pIC50 value of Cc1ccc(S(=O)(=O)NCC2(O)CCCC2)cc1-c1cnc(N)c(-n2cncn2)n1 .
[reply] 7.30

[ask] If you can, please state the reported pIC50 value of Cc1ccc(S(=O)(=O)NCC(C)(C)N2CCOCC2)cc1-c1cnc(N)c(-n2cncn2)n1 .
[reply] 6.85

[ask] If you can, please state the reported pIC50 value of Cc1ccc(S(=O)(=O)NC[C@H]2C[C@@H](O)C2)cc1-c1cnc(N)c(-c2cc(C3CC3)no2)n1 .
[reply] 8.52

[ask] If you can, please state the reported pIC50 value of Cc1ccc(S(=O)(=O)N[C@H]2C[C@H](O)C2)cc1-c1cnc(N)c(-n2cncn2)n1 [Example 71a] .
[reply] 7.89

[ask] If you can, please state the reported pIC50 value of Cc1ncc(S(=O)(=O)NCC(C)(C)O)cc1-c1cnc(N)c(-n2cncn2)n1 .
[reply] 6.16

[ask] If you can, please state the reported pIC50 value of Cc1ccc(S(=O)(=O)NC2CCOCC2)cc1-c1cnc(N)c(-n2cncn2)n1 .
[reply] 7.14

[ask] If you can, please state the reported pIC50 value of Cc1cc(-c2nc(-c3cc(S(=O)(=O)NC4CCC(CO)CC4)ccc3C)cnc2N)ccn1 (stereo not shown) .
[reply] 7.64

[ask] If you can, please state the reported pIC50 value of Cc1cc(C)c(S(=O)(=O)NCC(C)(C)O)cc1-c1cnc(N)c(-n2cncn2)n1 .
[reply] 7.04

[ask] If you can, please state the reported pIC50 value of Cc1ccc(S(=O)(=O)NCC2(C(N)=O)CC2)cc1-c1cnc(N)c(-n2cncn2)n1 .
[reply] 7.14

###

# assayed system: PI 3-kinase alpha (Homo sapiens, UniProt P42336)
# Sequence (P42336 whole entry): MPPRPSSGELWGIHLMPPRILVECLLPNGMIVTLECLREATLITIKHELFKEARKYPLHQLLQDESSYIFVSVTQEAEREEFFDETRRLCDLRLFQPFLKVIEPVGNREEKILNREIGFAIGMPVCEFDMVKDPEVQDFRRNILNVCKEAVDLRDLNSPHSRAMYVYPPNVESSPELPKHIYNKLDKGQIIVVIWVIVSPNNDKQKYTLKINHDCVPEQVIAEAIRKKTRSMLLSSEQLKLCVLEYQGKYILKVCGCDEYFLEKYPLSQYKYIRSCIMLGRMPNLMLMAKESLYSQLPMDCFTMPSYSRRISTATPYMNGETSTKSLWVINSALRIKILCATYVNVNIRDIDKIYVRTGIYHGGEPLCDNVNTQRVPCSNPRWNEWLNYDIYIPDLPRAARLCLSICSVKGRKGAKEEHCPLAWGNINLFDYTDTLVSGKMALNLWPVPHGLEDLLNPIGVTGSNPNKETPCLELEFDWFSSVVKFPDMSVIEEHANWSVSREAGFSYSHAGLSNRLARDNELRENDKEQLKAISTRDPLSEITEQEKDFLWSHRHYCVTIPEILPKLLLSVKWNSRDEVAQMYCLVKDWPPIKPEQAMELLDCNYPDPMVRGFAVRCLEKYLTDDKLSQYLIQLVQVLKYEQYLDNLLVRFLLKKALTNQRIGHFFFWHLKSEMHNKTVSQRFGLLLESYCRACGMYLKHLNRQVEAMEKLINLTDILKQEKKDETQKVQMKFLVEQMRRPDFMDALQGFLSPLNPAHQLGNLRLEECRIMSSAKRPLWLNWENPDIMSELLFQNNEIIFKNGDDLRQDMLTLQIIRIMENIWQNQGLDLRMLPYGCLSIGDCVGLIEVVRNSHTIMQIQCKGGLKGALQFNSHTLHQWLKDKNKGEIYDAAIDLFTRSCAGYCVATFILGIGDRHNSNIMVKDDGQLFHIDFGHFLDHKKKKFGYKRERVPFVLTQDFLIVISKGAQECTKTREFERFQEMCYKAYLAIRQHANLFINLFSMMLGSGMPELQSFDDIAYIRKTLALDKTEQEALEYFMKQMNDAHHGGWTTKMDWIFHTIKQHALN
# measurement description: Kinase Glo Luminescent Kinase Assay (Kglo), assay A
# Format: biochemical
# run conditions: read-out: Assay A PI3Kα IC50
endpoint name: pIC50
Please express pIC50 as -log10 of the molar concentration.

# compound, assayed system, pIC50
rows = [
    ("Cc1ccc(S(=O)(=O)NCCC(C)(C)O)cc1-c1cnc(N)c(-c2cc(C(F)(F)F)nn2C)n1", "PI 3-kinase alpha (Homo sapiens, UniProt P42336)", 6.22),
]

// below: pIC50 requested for another compound
[ask] What is its pIC50 for PI 3-kinase alpha (Homo sapiens, UniProt P42336)? Entry: Cc1cc(-c2nc(-c3cc(S(=O)(=O)N[C@H]4CC[C@@H](O)CC4)ccc3C)cnc2N)ccn1
[reply] 6.74

###

Catalogue of Assay M RLM CI(int) values
# measurement description: Microsomal clearance assay (M)
# run conditions: intrinsic clearance in rat liver microsomes
Reply with just the number (in µL/min/mg).

Recorded results for 5 compounds are shown here.
# compound, Assay M RLM CI(int) [µL/min/mg]
records = [
    ("Cc1ncc(S(=O)(=O)NCC(C)(C)O)cc1-c1cnc(N)c(-n2cncn2)n1", 29),
    ("Cc1cc(F)c(S(=O)(=O)NCCC(C)(C)O)cc1-c1cnc(N)c(-c2cnn(C)c2)n1", 38),
    ("Cc1cc(-c2nc(-c3cc(S(=O)(=O)N[C@H]4CC[C@H](O)CC4)ccc3C)cnc2N)on1", 27),
    ("Cc1ccc(S(=O)(=O)NCC(C)(C)O)cc1-c1cnc(N)c(-n2cc(C)c(C)n2)n1", 140),
    ("Cc1cc(-c2nc(-c3cc(S(=O)(=O)NCCC(C)(C)O)ccc3C)cnc2N)ccn1", 44),
]

// below: Assay M RLM CI(int) requested for another compound
[ask] If you can, please state the reported Assay M RLM CI(int) value of Cc1ccc(S(=O)(=O)NC[C@@H]2COCCN2)cc1-c1cnc(N)c(-c2cn(C)nc2C)n1 .
[reply] 20

###

# assayed system: PI 4-kinase beta (Homo sapiens, UniProt Q9UBF8)
# Sequence (Q9UBF8 whole entry): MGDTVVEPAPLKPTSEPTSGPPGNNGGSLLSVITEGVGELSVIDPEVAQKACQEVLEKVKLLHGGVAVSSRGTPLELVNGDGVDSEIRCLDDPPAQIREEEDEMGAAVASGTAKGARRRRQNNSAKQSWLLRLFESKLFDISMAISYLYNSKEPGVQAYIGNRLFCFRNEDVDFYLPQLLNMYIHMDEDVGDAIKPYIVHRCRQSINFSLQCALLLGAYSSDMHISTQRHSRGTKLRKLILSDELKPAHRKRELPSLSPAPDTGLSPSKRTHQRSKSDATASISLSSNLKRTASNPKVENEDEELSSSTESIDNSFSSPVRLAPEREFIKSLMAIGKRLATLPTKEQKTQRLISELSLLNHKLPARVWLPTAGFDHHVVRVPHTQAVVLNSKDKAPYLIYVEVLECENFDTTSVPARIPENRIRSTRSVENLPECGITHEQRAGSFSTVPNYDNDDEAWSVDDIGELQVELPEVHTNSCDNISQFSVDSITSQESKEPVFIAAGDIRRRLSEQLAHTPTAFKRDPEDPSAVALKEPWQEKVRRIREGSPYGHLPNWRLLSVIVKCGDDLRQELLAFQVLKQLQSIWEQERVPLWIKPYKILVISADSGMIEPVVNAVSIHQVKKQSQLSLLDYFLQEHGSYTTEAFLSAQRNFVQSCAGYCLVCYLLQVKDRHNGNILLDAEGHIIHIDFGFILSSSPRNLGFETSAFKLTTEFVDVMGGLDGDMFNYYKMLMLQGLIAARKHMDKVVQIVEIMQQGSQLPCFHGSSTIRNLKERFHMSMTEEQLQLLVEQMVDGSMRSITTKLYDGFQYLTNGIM
# measurement description: Kinase Glo Luminescent Kinase Assay (Kglo), assay D
# Assay type: biochemical
# run conditions: read-out: Assay D PI4Kβ IC50
Where a name gives a salt, the structure may show the parent alone.
# rule met = IC50 below 5 µM (exclusive); rule not met = IC50 at/above 5 µM

Worked examples follow.
# compound, qualitative label
records = [
    ("CCN1CCC[C@@H]1CNS(=O)(=O)c1ccc(C)c(-c2cnc(N)c(-c3cnc(C)s3)n2)c1", "rule not met"),
    ("Cc1ccc(S(=O)(=O)NC2CC3(CC(O)C3)C2)cc1-c1cnc(N)c(-n2cncn2)n1 (stereo not drawn) [Example 67]", "rule not met"),
    ("Cc1ncc(-c2nc(-c3cc(S(=O)(=O)NC[C@H]4C[C@@H](O)C4)ccc3C)cnc2N)s1 [Example 20a]", "rule not met"),
    ("Cc1ccc(S(=O)(=O)NCC2CNCCO2)cc1-c1cnc(N)c(-c2cn(C)nc2C)n1 (stereo not drawn)", "rule not met"),
    ("Cc1cc(-c2nc(-c3cc(S(=O)(=O)NCCCCCO)ccc3C)cnc2N)ccn1", "rule not met"),
]

[ask] Hello, I'm reviewing records and need to know if IC50 of Cc1ccc(S(=O)(=O)NC[C@@H]2CCNC2)cc1-c1cnc(N)c(-n2cncn2)n1 [Example 127.57, trifluoroacetic acid salt] is below 5 µM. Could you check?
[reply] rule not met

[ask] Hello, I'm reviewing records and need to know if IC50 of CNCCNS(=O)(=O)c1ccc(C)c(-c2cnc(N)c(-c3ccnc(C)c3)n2)c1 is below 5 µM. Could you check?
[reply] rule not met

[ask] Hello, I'm reviewing records and need to know if IC50 of Cc1cc(Cl)c(S(=O)(=O)NCC(C)(C)O)cc1-c1cnc(N)c(-n2cncn2)n1 is below 5 µM. Could you check?
[reply] rule met

[ask] Hello, I'm reviewing records and need to know if IC50 of CC[C@@H](CO)NS(=O)(=O)c1ccc(C)c(-c2cnc(N)c(-c3ccnc(C)c3)n2)c1 is below 5 µM. Could you check?
[reply] rule not met

[ask] Hello, I'm reviewing records and need to know if IC50 of Cc1ccc(S(=O)(=O)NCC(C)(C)O)cc1-c1cnc(N)c(-c2cnn(CCN(C)C)c2)n1 is below 5 µM. Could you check?
[reply] rule not met

[ask] Hello, I'm reviewing records and need to know if IC50 of Cc1ccc(S(=O)(=O)NCCC(C)(C)O)cc1-c1cnc(N)c(-c2cnc(Cl)cc2C)n1 is below 5 µM. Could you check?
[reply] rule met

[ask] Hello, I'm reviewing records and need to know if IC50 of Cc1ccc(S(=O)(=O)NCCC(C)(C)O)cc1-c1cnc(N)c(-c2cccnc2F)n1 is below 5 µM. Could you check?
[reply] rule not met

[ask] Hello, I'm reviewing records and need to know if IC50 of Cc1ccc(S(=O)(=O)NCCC(C)(C)O)cc1-c1cnc(N)c(-c2cc(Cl)cnc2F)n1 is below 5 µM. Could you check?
[reply] rule met
